This collection of values is drawn from the supplement of paper PMC11061612.

// reported combination Emax per item
tested on: KARPAS-231 (B-Cell Non-Hodgkin's Lymphoma); test: combination Emax (second highest fraction inhibited in the dose matrix, 72 h); higher = more inhibition; extreme values may be limits of the assay
Property: combination Emax

Molecule	Value Measured
COc1nnc2ccc(N3CCC(c4ccc(OCCN5CCN(C)C(=O)[C@H]5C)cc4)CC3)nn12 [AZD5153] + CC1(C)CCC(CN2CCN(c3ccc(C(=O)NS(=O)(=O)c4ccc(NCC5CCOCC5)c([N+](=O)[O-])c4)c(Oc4cnc5[nH]ccc5c4)c3)CC2)=C(c2ccc(Cl)cc2)C1 [Venetoclax] (first compound max 1 µM, 7x7, partner max 1 µM)	1
CC1(C)CCC(CN2CCN(c3ccc(C(=O)NS(=O)(=O)c4ccc(NCC5CCOCC5)c([N+](=O)[O-])c4)c(Oc4cnc5[nH]ccc5c4)c3)CC2)=C(c2ccc(Cl)cc2)C1 [Venetoclax] + C[C@@H]1COCCN1C2=NC(=NC(=C2)C3(CC3)[S@](=N)(=O)C)C4=C5C=CNC5=NC=C4 [AZD6738] (first compound max 1 µM, 7x7, partner max 10 µM)	1
CCc1c2c(nc3ccc(O)cc13)-c1cc3c(c(=O)n1C2)COC(=O)[C@]3(O)CC [SN-38] + O=C(c1cc(Cc2n[nH]c(=O)c3ccccc23)ccc1F)N1CCN(C(=O)C2CC2)CC1 [Olaparib] (first compound max 0.3 µM, 7x7, partner max 10 µM)	1
